- Tested on: human APOE RNA
- protocol.details: Dose-dependent inhibition of human APOE RNA in HepG2 cells, electroporation, 50,000 cells per well, RT-PCR normalized to GAPDH (Example 4, Tables 8-10)
- Format: cell-based
- applied.conditions: HepG2 cells, electroporation, 24-hour treatment, 205 nM, Table 8
- Method: Modified oligonucleotides selected from the examples above were tested at various doses in HepG2 cells. The modified oligonucleotides were tested in a series of experiments that had the same culture conditions. Each experiment is identified in separate tables below. HepG2 cells plated at a density of 50,000 cells per well were treated by electroporation with various concentrations of modified oligonucleotide as specified in the tables below. […]
Strand notation (5' to 3'): a small letter for the sugar, then the base; units joined by * are phosphorothioate-linked, units joined directly phosphodiester-linked; [ ] holds rarer units or linkages, { } end groups; capitals alone tell only the bases. [ms] = mesyl phosphoramidate linkage; e = 2'-O-(2-methoxyethyl) (MOE); k = constrained ethyl (cEt); [5mC] = 5-methylcytosine; d = 2'-deoxy (DNA)
Recorded APOE RNA (% UTC) 205 nM for the following substances

substance | APOE RNA (% UTC) 205 nM
1778125: modified oligonucleotide complementary to human APOE RNA (eA*e[5mC]eTeTeGeG*dT*dG[ms]dA[ms]dA*dT*d[5mC]*dT*dT*dT*dA[ms]kTkT*eA*eA; antisense) [compound 1778125] | 63 % UTC
1778130: modified oligonucleotide complementary to human APOE RNA (eA*e[5mC]eTeTeG*kG*dT*dG[ms]dA[ms]dA*dT*d[5mC]*dT*dT*dT*dA[ms]kTkT*eA*eA; antisense) [compound 1778130] | 61 % UTC
1785598: modified oligonucleotide complementary to human APOE RNA (k[5mC]*kT*kT*dG[ms]dG[ms]dT[ms]dG[ms]dA[ms]dA[ms]dT*d[5mC]*dT*dT*dT*dA*dT[ms]kT*kA*dA[ms]kA; antisense) [compound 1785598] | 70 % UTC
1785601: modified oligonucleotide complementary to human APOE RNA (k[5mC]*kT*kT*dG[ms]dG[ms]dT[ms]dG*dA[ms]dA[ms]dT*d[5mC]*dT*dT*dT*dA[ms]dT*kT*kA*dA[ms]kA; antisense) [compound 1785601] | 63 % UTC

The measured values listed here are drawn from patent US20250353873A1.
